Sourced from ChEMBL document CHEMBL4261572

For UniProtKB O42275, measured IC50 is reported for the entries below.
Sequence (O42275 whole entry): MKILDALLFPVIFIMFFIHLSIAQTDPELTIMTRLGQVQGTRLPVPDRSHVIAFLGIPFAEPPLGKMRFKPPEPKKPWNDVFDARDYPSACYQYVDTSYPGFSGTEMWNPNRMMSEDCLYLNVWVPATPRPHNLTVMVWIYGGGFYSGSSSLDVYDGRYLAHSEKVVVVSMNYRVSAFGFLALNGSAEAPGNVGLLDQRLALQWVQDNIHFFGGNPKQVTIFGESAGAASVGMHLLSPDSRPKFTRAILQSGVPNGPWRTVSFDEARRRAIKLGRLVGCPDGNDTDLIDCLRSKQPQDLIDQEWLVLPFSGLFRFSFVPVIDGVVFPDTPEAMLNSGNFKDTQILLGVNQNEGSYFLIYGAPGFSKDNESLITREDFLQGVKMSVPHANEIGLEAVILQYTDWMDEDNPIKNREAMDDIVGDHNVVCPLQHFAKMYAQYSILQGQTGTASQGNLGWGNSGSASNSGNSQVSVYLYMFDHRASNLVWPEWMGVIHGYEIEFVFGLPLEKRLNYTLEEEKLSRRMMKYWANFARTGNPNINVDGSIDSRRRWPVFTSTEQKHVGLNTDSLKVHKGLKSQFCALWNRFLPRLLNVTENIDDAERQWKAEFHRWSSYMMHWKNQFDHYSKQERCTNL
test.readout: IC50 (µM)

>>> recorded_value("Clc1ccc2c(-n3cc(CCCCN4CCN(c5c6c(nc7cc(Cl)ccc57)CCCC6)CC4)nn3)ccnc2c1")
19.6
>>> recorded_value("O=C(CCCCc1cn(-c2ccnc3cc(Cl)ccc23)nn1)N1CCN(c2c3c(nc4ccccc24)CCCC3)CC1")
11.1
